# Experiment summary: pH stability: half-lives for P—N bond hydrolysis of model linkers
# Type: physicochemical
# Particulars: pH 3
Exercise: state measured ½ Lives for P—N Bond Hydrolysis, pH 3 for each of the molecules provided.
Give bare numbers, in hr.

Example entries begin here.
>  <Molecule>
CN(CCc1ccccc1)P(=O)(O)OCCCc1cccnc1 [Entry H9]

>  <½ Lives for P—N Bond Hydrolysis, pH 3 [hr]>
0.48

$$$$
>  <Molecule>
CN(c1ccccc1)P(=O)(O)OCCCc1ccccn1 [Entry H135]

>  <½ Lives for P—N Bond Hydrolysis, pH 3 [hr]>
0.48

$$$$

Let's switch to this molecule now.
Input: Tell me the measured ½ Lives for P—N Bond Hydrolysis, pH 3 of O=P(O)(Nc1ccccc1)OCCc1ccccn1 [Entry H85] , please.
Output: 0.32
